Attribute: CC50 at 96 h
- measurement_protocol: Cytotoxicity against MT4 cells after 4 days by MTT method
- Assay type: cell-based
- recorded_conditions: human
Respond numerically; units are µM and should not be typed.

CCc1c(C(C#N)c2cccc3ccccc23)nc(SCc2ccc([N+](=O)[O-])cc2)[nH]c1=O (stereo not given) ... 24.5
CCSc1nc(C(C#N)c2cccc3ccccc23)c(CC)c(=O)[nH]1 (stereo not given) ... 122

Then there is this compound:
QUERY: Suppose we examine the compound Cc1c(C(C#N)c2ccccc2)nc(SCC(=O)c2ccccc2)[nH]c1=O (stereo not given) ; what CC50 at 96 h value has been reported?
RESULT: 53.8
